System: 817829-284-R-J1-PDC multi-cell spheroid viability
Experiment Description: Anticancer human tumor 817829-284-R-J1-PDC patient-derived colon adenocarcinoma cell line growth inhibition [PI3K]
Condition Set: curve of first compound; second compound 0.1 µM
pIC50: −log10 of the molar value.
Readout Kind: pIC50

- Molecule: "CNC(=O)c1ccc(N2C(=S)N(c3ccc(C#N)c(C(F)(F)F)c3)C(=O)C2(C)C)cc1F + CC(Nc1ccc2c(c1)OCCn1cc(N3C(=O)OCC3C(F)F)nc1-2)C(N)=O"
  pIC50: 5.38

a. Cn1nccc1Nc1nccc(-c2ccn(C(CO)c3ccc(Cl)c(F)c3)c(=O)c2)n1 (stereo not drawn) + Cc1nc(NC(=O)N2CCCC2C(N)=O)sc1-c1ccnc(C(C)(C)C(F)(F)F)c1
b. CCCS(=O)(=O)Nc1ccc(F)c(C(=O)c2c[nH]c3ncc(-c4ccc(Cl)cc4)cc23)c1F + COc1c(OCCCN2CCOCC2)ccc2c3n(c(=NC(=O)c4cnc(N)nc4)nc12)CCN3
c. CC(C)n1nc(-c2ccc3oc(N)nc3c2)c2c(N)ncnc21 + CC(Nc1ccc2c(c1)OCCn1cc(N3C(=O)OCC3C(F)F)nc1-2)C(N)=O
Request: // sort entries: pIC50, high to low Please, when replying, give the labels in the order that was requested.
Result: c, b, a

====

The entries below are paired with their reported viability, T/C.
Test system: 817829-284-R-J1-PDC multi-cell spheroid viability
Experiment Description: Anticancer human tumor 817829-284-R-J1-PDC cell line growth inhibition [PI3K];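 also: spheroids exposed to agents for seven days before readout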;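 as to viability, T/C: percent of vehicle DMSO control viability which is 100%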
Condition Set: second compound 0.0316 µM; first compound 0.1 µM; stronger effect = lower value
All answers are understood in %, so give the number only.

- Compound: "CC(Cn1ccc(-c2ccc(C#N)c(Cl)c2)n1)NC(=O)c1cc(C(C)O)[nH]n1 (stereo unspecified) + COc1c(OCCCN2CCOCC2)ccc2c3n(c(=NC(=O)c4cnc(N)nc4)nc12)CCN3"
  viability, T/C (%): 61.7

Request: Note down viability, T/C recorded for CC(C)n1nc(-c2ccc3oc(N)nc3c2)c2c(N)ncnc21 + COc1c(OCCCN2CCOCC2)ccc2c3n(c(=NC(=O)c4cnc(N)nc4)nc12)CCN3
Result: 19.6

Request: Note down viability, T/C recorded for CC(C)NCC(C(=O)N1CCN(c2ncnc3c2C(C)CC3O)CC1)c1ccc(Cl)cc1 (stereo unspecified) + COc1c(OCCCN2CCOCC2)ccc2c3n(c(=NC(=O)c4cnc(N)nc4)nc12)CCN3
Result: 40.6

Request: Note down viability, T/C recorded for C=CC(=O)N1CCN(c2nc(=O)n(-c3c(C)ccnc3C(C)C)c3nc(-c4c(O)cccc4F)c(F)cc23)C(C)C1 (stereo unspecified) + CC(Nc1ccc2c(c1)OCCn1cc(N3C(=O)OCC3C(F)F)nc1-2)C(N)=O
Result: 112

Request: Note down viability, T/C recorded for CC(C)NCC(C(=O)N1CCN(c2ncnc3c2C(C)CC3O)CC1)c1ccc(Cl)cc1 (stereo unspecified) + Cc1nc(NC(=O)N2CCCC2C(N)=O)sc1-c1ccnc(C(C)(C)C(F)(F)F)c1
Result: 62.1

Request: Note down viability, T/C recorded for CC(Cn1ccc(-c2ccc(C#N)c(Cl)c2)n1)NC(=O)c1cc(C(C)O)[nH]n1 (stereo unspecified) + CC(Nc1ncnc2nc[nH]c12)c1cc2cccc(Cl)c2c(=O)n1-c1ccccc1
Result: 78.8

Request: Note down viability, T/C recorded for Cn1ncnc1[C@H]1c2n[nH]c(=O)c3cc(F)cc(c23)N[C@@H]1c1ccc(F)cc1 + CC(Nc1ccc2c(c1)OCCn1cc(N3C(=O)OCC3C(F)F)nc1-2)C(N)=O
Result: 43.6

====

Test system: 817829-284-R-J1-PDC multi-cell spheroid viability
Experiment Description: Anticancer human tumor 817829-284-R-J1-PDC cell line growth inhibition [PI3K];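 also: spheroids exposed to agents for seven days before readout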;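 as to viability, T/C: percent of vehicle DMSO control viability which is 100%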
Condition Set: second compound 0.0316 µM; first compound 10 µM; stronger effect = lower value
Readout Kind: viability, T/C (%)
All answers are understood in %, so give the number only.

Request: Note down viability, T/C recorded for CC(Cn1ccc(-c2ccc(C#N)c(Cl)c2)n1)NC(=O)c1cc(C(C)O)[nH]n1 (stereo not given) + CC(Nc1ccc2c(c1)OCCn1cc(N3C(=O)OCC3C(F)F)nc1-2)C(N)=O
Result: 59.9

Request: Note down viability, T/C recorded for C[C@@H](NC(=O)c1ncnc(N)c1Cl)c1ncc(C(=O)Nc2cc(C(F)(F)F)c(Cl)cn2)s1 + Cc1nc(NC(=O)N2CCCC2C(N)=O)sc1-c1ccnc(C(C)(C)C(F)(F)F)c1
Result: 88.2

Request: Note down viability, T/C recorded for CCCS(=O)(=O)Nc1ccc(F)c(C(=O)c2c[nH]c3ncc(-c4ccc(Cl)cc4)cc23)c1F + CC(Nc1ncnc2nc[nH]c12)c1cc2cccc(Cl)c2c(=O)n1-c1ccccc1
Result: 4.04

Request: Note down viability, T/C recorded for CCCS(=O)(=O)Nc1ccc(F)c(C(=O)c2c[nH]c3ncc(-c4ccc(Cl)cc4)cc23)c1F + CC(Nc1ccc2c(c1)OCCn1cc(N3C(=O)OCC3C(F)F)nc1-2)C(N)=O
Result: 4.59

Request: Note down viability, T/C recorded for CC1(C)CCC(CN2CCN(c3ccc(C(=O)NS(=O)(=O)c4ccc(NCC5CCOCC5)c([N+](=O)[O-])c4)c(Oc4cnc5[nH]ccc5c4)c3)CC2)=C(c2ccc(Cl)cc2)C1 + Cc1nc(NC(=O)N2CCCC2C(N)=O)sc1-c1ccnc(C(C)(C)C(F)(F)F)c1
Result: 4.12

Request: Note down viability, T/C recorded for CC(Cn1ccc(-c2ccc(C#N)c(Cl)c2)n1)NC(=O)c1cc(C(C)O)[nH]n1 (stereo not given) + CC(Nc1ncnc2nc[nH]c12)c1cc2cccc(Cl)c2c(=O)n1-c1ccccc1
Result: 75.1

Request: Note down viability, T/C recorded for C[C@@H](NC(=O)c1ncnc(N)c1Cl)c1ncc(C(=O)Nc2cc(C(F)(F)F)c(Cl)cn2)s1 + COc1c(OCCCN2CCOCC2)ccc2c3n(c(=NC(=O)c4cnc(N)nc4)nc12)CCN3
Result: 72.3

Request: Note down viability, T/C recorded for CC1(C)CCC(Nc2ncc(C(F)(F)F)c(-c3c[nH]c4c(P(C)(C)=O)c(C#N)ccc34)n2)CN1 (stereo not given) + CC(Nc1ccc2c(c1)OCCn1cc(N3C(=O)OCC3C(F)F)nc1-2)C(N)=O
Result: 0.85

Request: Note down viability, T/C recorded for C#Cc1c(F)ccc2cc(O)cc(-c3ncc4c(N5CC6CCC(C5)N6)nc(OCC56CCCN5CC(F)C6)nc4c3F)c12 (stereo not given) + CC(Nc1ccc2c(c1)OCCn1cc(N3C(=O)OCC3C(F)F)nc1-2)C(N)=O
Result: 47.8

Request: Note down viability, T/C recorded for CC1(C)CCC(Nc2ncc(C(F)(F)F)c(-c3c[nH]c4c(P(C)(C)=O)c(C#N)ccc34)n2)CN1 (stereo not given) + Cc1nc(NC(=O)N2CCCC2C(N)=O)sc1-c1ccnc(C(C)(C)C(F)(F)F)c1
Result: 1.2

====

Tested on: 817829-284-R-J1-PDC multi-cell spheroid viability
Experiment Description: Anticancer human tumor 817829-284-R-J1-PDC cell line growth inhibition [PI3K];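 also: spheroids exposed to agents for seven days before readout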;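 as to viability, T/C: percent of vehicle DMSO control viability which is 100%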
Condition Set: second compound 0.316 µM; first compound 0.1 µM; stronger effect = lower value
Readout Kind: viability, T/C (%)
All answers are understood in %, so give the number only.

Known results for compounds:
- Compound: "CC(=O)c1c(C)c2cnc(Nc3ccc(N4CCNCC4)cn3)nc2n(C2CCCC2)c1=O + CC(Nc1ccc2c(c1)OCCn1cc(N3C(=O)OCC3C(F)F)nc1-2)C(N)=O"
  Observed: 23.3
- Compound: "CNC(=O)c1ccc(N2C(=S)N(c3ccc(C#N)c(C(F)(F)F)c3)C(=O)C2(C)C)cc1F + COc1c(OCCCN2CCOCC2)ccc2c3n(c(=NC(=O)c4cnc(N)nc4)nc12)CCN3"
  Observed: 23
- Compound: "CC(=O)c1c(C)c2cnc(Nc3ccc(N4CCNCC4)cn3)nc2n(C2CCCC2)c1=O + COc1c(OCCCN2CCOCC2)ccc2c3n(c(=NC(=O)c4cnc(N)nc4)nc12)CCN3"
  Observed: 16.2
- Compound: "CCCS(=O)(=O)Nc1ccc(F)c(C(=O)c2c[nH]c3ncc(-c4ccc(Cl)cc4)cc23)c1F + CC(Nc1ncnc2nc[nH]c12)c1cc2cccc(Cl)c2c(=O)n1-c1ccccc1"
  Observed: 70

Turning to the following compound.
Request: Note down viability, T/C recorded for CC1(C)CCC(CN2CCN(c3ccc(C(=O)NS(=O)(=O)c4ccc(NCC5CCOCC5)c([N+](=O)[O-])c4)c(Oc4cnc5[nH]ccc5c4)c3)CC2)=C(c2ccc(Cl)cc2)C1 + COc1c(OCCCN2CCOCC2)ccc2c3n(c(=NC(=O)c4cnc(N)nc4)nc12)CCN3
Result: 20.7
